Target: RXRγ (Homo sapiens, UniProt P48443)
Construct: expressed in transfected cells
Sequence (P48443 whole entry): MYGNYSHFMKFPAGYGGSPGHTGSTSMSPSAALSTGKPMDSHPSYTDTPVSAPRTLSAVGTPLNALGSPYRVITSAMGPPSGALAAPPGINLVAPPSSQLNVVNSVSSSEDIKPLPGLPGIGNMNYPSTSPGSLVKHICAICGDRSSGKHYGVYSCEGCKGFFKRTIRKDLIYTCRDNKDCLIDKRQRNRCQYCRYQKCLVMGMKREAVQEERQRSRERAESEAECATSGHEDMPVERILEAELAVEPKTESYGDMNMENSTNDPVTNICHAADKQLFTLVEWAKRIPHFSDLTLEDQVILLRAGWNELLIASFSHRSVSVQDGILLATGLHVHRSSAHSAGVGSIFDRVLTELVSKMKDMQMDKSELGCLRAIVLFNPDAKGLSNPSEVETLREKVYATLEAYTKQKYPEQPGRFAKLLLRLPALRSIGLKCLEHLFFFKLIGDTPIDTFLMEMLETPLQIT
Experiment: RXR receptor transactivation assay
Assay type: cell-based
Conditions: read-out: % Eff RXR γ transactivation
endpoint: Emax

Observe how each entry below is paired with its result.
> print(dat)
                                   compound  result
1  CC1=CC(C)(C)Oc2cc(C3(C)CC3/C=C/C(C)=C/C(=O)O)ccc21 (centres unmarked)     96%
2  CC(/C=C/[C@@H]1C[C@]1(C)c1ccc2c(c1)C(C(C)C)=CCC2(C)C)=C\C(=O)O    108%

Please give Emax for each item listed below.
1. CC(/C=C/[C@@H]1C[C@]1(C)c1cc(C(C)(C)C)cc(C(C)(C)C)c1)=C\C(=O)O
2. CC(/C=C/[C@@H]1C[C@]1(C)c1ccc2c(c1)C(C(C)(C)C)=CCC2(C)C)=C\C(=O)O
3. CCC1(c2cc(C(C)C)cc(C(C)C)c2)CC1/C=C/C(C)=C/C(=O)O (single isomer, unassigned; (+))
4. CC(/C=C/[C@@H]1C[C@]1(C)c1ccc2c(c1)OC(C)(C)C=C2C(C)C)=C\C(=O)O
5. CC(/C=C/[C@@H]1C[C@]1(C)c1ccc2c(c1)OC(C)(C)C=C2C(C)(C)C)=C\C(=O)O

Outgoing:
1: 112%; 2: 89%; 3: 156%; 4: 116%; 5: 105%

---

Biological target: RXRβ (Homo sapiens)
Sequence (P28702 1-533): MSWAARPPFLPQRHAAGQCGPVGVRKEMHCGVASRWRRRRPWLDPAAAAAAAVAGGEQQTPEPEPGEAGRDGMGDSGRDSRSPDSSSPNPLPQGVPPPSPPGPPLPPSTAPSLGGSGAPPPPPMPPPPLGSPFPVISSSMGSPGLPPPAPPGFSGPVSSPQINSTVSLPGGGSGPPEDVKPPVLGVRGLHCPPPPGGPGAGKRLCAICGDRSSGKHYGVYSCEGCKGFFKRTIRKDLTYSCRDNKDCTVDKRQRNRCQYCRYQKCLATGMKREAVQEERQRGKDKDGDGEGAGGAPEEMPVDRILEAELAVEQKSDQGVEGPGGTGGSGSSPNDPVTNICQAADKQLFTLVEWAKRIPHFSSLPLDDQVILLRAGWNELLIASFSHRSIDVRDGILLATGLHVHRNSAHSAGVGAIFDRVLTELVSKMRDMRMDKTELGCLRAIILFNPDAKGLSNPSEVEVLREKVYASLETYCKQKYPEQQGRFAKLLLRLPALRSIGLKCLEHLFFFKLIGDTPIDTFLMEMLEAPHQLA
Experiment: RXR receptor transactivation assay
Details: read-out: EC50 RXR β transactivation
Decide using EC50 alone. Strictly below 0.7 nM: Yes. Equal to or above 0.7 nM: No.

Use the examples below as a reference point.
> print(dat)
                                   compound        tested.system  assigned.label
1  CCCCC1=CC(C)(C)Oc2cc([C@@]3(C)C[C@H]3/C=C/C(C)=C/C(=O)O)ccc21  RXRβ (Homo sapiens)             Yes
2  CCCC1(c2ccc3c(c2)C(C(C)(C)C)=CCC3(C)C)CC1/C=C/C(C)=C/C(=O)O (single isomer, unassigned; (+))  RXRβ (Homo sapiens)              No
3  CC(/C=C/[C@@H]1C[C@]1(C)c1ccc2c(c1)C(C(C)C)=CCC2(C)C)=C\C(=O)O  RXRβ (Homo sapiens)             Yes
4  CC(/C=C/[C@@H]1C[C@]1(C)c1ccc2c(c1)OC(C)(C)C=C2C(C)(C)C)=C\C(=O)O  RXRβ (Homo sapiens)             Yes
5  CCCC1(c2cc(C(C)(C)C)cc(C(C)(C)C)c2)CC1/C=C/C(C)=C/C(=O)O (single isomer, unassigned; (+))  RXRβ (Homo sapiens)              No

Incoming: Please check: EC50 for CCCC1(c2ccc3c(c2)C(C(C)C)=CCC3(C)C)CC1/C=C/C(C)=C/C(=O)O (single isomer, unassigned; (+)) , strictly under 0.7 nM or not?
Outgoing: No

Incoming: Please check: EC50 for CC(/C=C/[C@@H]1C[C@]1(C)c1cc(C(C)(C)C)cc(C(C)(C)C)c1)=C\C(=O)O , strictly under 0.7 nM or not?
Outgoing: No

---

For each of the compounds below, state its Kd.
Molecular target: RXRγ (Homo sapiens, UniProt P48443)
Construct: expressed in transfected cells
Assay: ligand binding assay
Details: read-out: Kd RXR γ binding
Numbers only, in nM.

Observe how each entry below is paired with its result.
> print(dat)
                                   compound                        tested.system  numeric.readout
1  CCCC1(c2ccc3c(c2)C(C(C)(C)C)=CCC3(C)C)CC1/C=C/C(C)=C/C(=O)O (single isomer, unassigned; (+)) [Compound 22]  RXRγ (Homo sapiens, UniProt P48443)             0.58
2  CC(/C=C/[C@@H]1C[C@]1(C)c1cc(C(C)(C)C)cc(C(C)(C)C)c1)=C\C(=O)O [Compound 96]  RXRγ (Homo sapiens, UniProt P48443)              2.8

Please give Kd for each item listed below.
1. CC(/C=C/[C@@H]1C[C@]1(C)c1ccc2c(c1)OC(C)(C)C=C2C(C)C)=C\C(=O)O [Compound 87]
2. CC(/C=C/[C@@H]1C[C@]1(C)c1ccc2c(c1)C(C(C)C)=CCC2(C)C)=C\C(=O)O [Compound 64]
3. CCCCC1=CC(C)(C)Oc2cc([C@@]3(C)C[C@H]3/C=C/C(C)=C/C(=O)O)ccc21 [Compound 89]

Outgoing:
[0.32, 3, 1.4]

---

Molecular target: RXRγ (Homo sapiens, UniProt P48443)
Construct: expressed in transfected cells
Experiment: RXR receptor transactivation assay
Assay type: cell-based
Conditions: read-out: % Eff RXR γ transactivation
For each of the compounds below, state its Emax.
Returns: string containing the number followed by the unit.

> print(dat)
                                   compound  endpoint  result
1  CCCC1(c2ccc3c(c2)C(C(C)(C)C)=CCC3(C)C)CC1/C=C/C(C)=C/C(=O)O (single isomer, unassigned; (+)) [Compound 22]      Emax    110%

Please give Emax for each item listed below.
1. CCCC1(c2cc(C(C)(C)C)cc(C(C)(C)C)c2)CC1/C=C/C(C)=C/C(=O)O (single isomer, unassigned; (+)) [Compound 14]
2. CCCC1(c2ccc3c(c2)C(C(C)C)=CCC3(C)C)CC1/C=C/C(C)=C/C(=O)O (single isomer, unassigned; (+)) [Compound 34]
3. CCCCC1=CC(C)(C)Oc2cc([C@@]3(C)C[C@H]3/C=C/C(C)=C/C(=O)O)ccc21 [Compound 89]

Outgoing:
1. 86%
2. 115%
3. 112%

---

Molecular target: RXRβ (Homo sapiens, UniProt P28702)
Assay: RXR receptor transactivation assay
Settings: read-out: EC50 RXR β transactivation
For each of the compounds below, state its pEC50.
Give bare numbers, as −log10 of the molar value.

> print(dat)
                                   compound  numeric.readout
1  CC(/C=C/[C@@H]1C[C@]1(C)c1ccc2c(c1)C(C(C)(C)C)=CCC2(C)C)=C\C(=O)O             9.15

Please give pEC50 for each item listed below.
1. CCC1(c2cc(C(C)C)cc(C(C)C)c2)CC1/C=C/C(C)=C/C(=O)O (single isomer, unassigned; (+))
2. CC(/C=C/[C@@H]1C[C@]1(C)c1ccc2c(c1)OC(C)(C)C=C2C(C)C)=C\C(=O)O
3. CC1=CC(C)(C)Oc2cc(C3(C)CC3/C=C/C(C)=C/C(=O)O)ccc21 (stereo not shown)

Outgoing:
10.22
9.52
9.34
